B1: tRNA (parent)
chain: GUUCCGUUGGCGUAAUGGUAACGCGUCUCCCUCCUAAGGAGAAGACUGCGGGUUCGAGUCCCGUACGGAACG

# Variants of: B1
# assay details: yeast fitness relative to wild type (ratio to wild type); higher = fitter; tRNA-Arg(CCU), competitive growth, 37 C, YPD
Fewer inactive variants are shown than the library holds.
Listing of entries alongside the reported yeast fitness.
Reply with the value as a number alone.

Example variants with recorded yeast fitness:
GUCCCGUUGGCGUAAUGGUAACGCGUCUCCCUCCUAAGGAGAAGACUGCGGGUUCGAGUCUCGCACGGAACG [U3C C61U U64C] | 0.72
GUUCCGUUGGCGUAAUGGUAACGCGUCUCCCUCCUAAGGAGAAGACCGCGGGUUCGAGUCCCGCACGGAACG [U47C U64C] | 0.926
GUUCCGUUGGCGUAAUGGUAACGCGUCUCACUCCUAAGGAGAAGACUGCAGGUUCGAGUCCCGUCCGGAACG [C30A G50A A65C] | 0.628
GUUUCGUUGGCGUAAUGGUAACGCGUCCCCCUCCUAAGGAGAAGACUGCGGGUUCGAGUCCCGUACGGAACG [C4U U28C] | 1.02
GUUCCCUUGGCGUAAUGGUAACGCGUCUCCCUCCUAAGGAGAAGACUGCGGGUUAGAGUCCCGUACGGAACG [G6C C55A] | 0.717
GUUCCGUUGGCGUAAUGGUAACGCGUCUCCCUCCUAAGGAAAAGACUGCGGGUUCGAGUCCCAUACGGAACG [G41A G63A] | 0.893

Identify yeast fitness associated with the variant GUUCCGUUGGCGUAAUGGUAACGCGUCUCCCUCCUAAGCAGAAGAGUGCGGGUUCGAGUCCCGUACGGAUCG [G39C C46G A70U]
0.603

Identify yeast fitness associated with the variant GUUUCGUUGGCGUAAUGGUAAGGCGUCUCCCUCCUAAGGAGGAGACUGCGGGUUCGAGUCCCGUACGGAACG [C4U C22G A42G]
0.695

Identify yeast fitness associated with the variant GUUCCGUUGGCGUAAUGGUAAAGCGUCUCCCUCCUAAGGAGAAGACUGCGGGUUCGAAUCCCGUACGGAACG [C22A G58A]
0.866

Identify yeast fitness associated with the variant GUUCCGUAGGCGUAAUGGUAACGCGUCUCCCUCCUAAGGAGAAGAUUGCGGGUUCGCGUCCCGUACGGAACG [U8A C46U A57C]
0.635

Identify yeast fitness associated with the variant GUUCCGUUGGCGUAAGGGUAGCGCGUCUCCUUCCUAAGGAGAAGACUGCGGGUUCGAGUCCCGUACGGAACG [U16G A21G C31U]
0.985

Identify yeast fitness associated with the variant GUUCCGUUGGGGUAAUGGUAACGCGUCUCCCACCUAAGGAGAAGAUUGCGGGUUCGAGUCCCGUACGGAACG [C11G U32A C46U]
0.598

Identify yeast fitness associated with the variant GUUCCGUUGGCGUAAUGGUAACGCGUCUCCCUCCUAAGGAGAAGACUGGGGGUUCGAGUUCCGUACGGAACG [C49G C60U]
0.692

Identify yeast fitness associated with the variant GUUCCGUUGGCGUAGUGGUAACGCGUCUCCCGCCCAAGGAGACGACUGCGGGUUCGAGUCCCGUACGGAACG [A15G U32G U35C A43C]
0.585

Identify yeast fitness associated with the variant GUUCCGGUGGCGUAAUGGUACCGCGUCUCCCUCCUAAGGAGAACACUGCGGGUUCGAGUCCCGUACGGAACG [U7G A21C G44C]
0.545

Identify yeast fitness associated with the variant GUUCCGUUGGCGUCAUGGUAACGCGUCUCCCUCCUAAGGUGACGACUGCGGGUUCGAGUCCCGUACGGAACG [A14C A40U A43C]
0.564
